meta.source: PubChem BioAssay (NCI)

- TEST DETAILS: NCI Yeast Anticancer Drug Screen. Data for the rad50 strain (AID 155);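 further: 0% = growth of vehicle-only cultures of the same strain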
- MEASUREMENT CONTEXT: S. cerevisiae rad50 strain growth inhibition, stronger effect = higher value; at 50.0 µM unless noted
This is part of a sample that, as a whole, favours compounds with a hit. Of some 79,000 tested, about 15% had one in any assay.
ASSAY READOUT: growth inhibition (%)
All answers are understood in %, so give the number only.

[ask] Find the recorded growth inhibition belonging to c1ccc(-c2cnoc2-c2ccccc2)cc1 and report it.
[reply] 14

[ask] Find the recorded growth inhibition belonging to Cc1ccc(Nc2cc(C(=O)O)c(Nc3ccc(C)cc3)cc2C(=O)O)cc1 and report it.
[reply] 0.7

[ask] Find the recorded growth inhibition belonging to N#Cc1nc(C2CC2)oc1N and report it.
[reply] -18.7

[ask] Find the recorded growth inhibition belonging to COc1ccc(/C=C2/C/C(=C/c3ccc(OC)cc3)C2=O)cc1 and report it.
[reply] 14.2

[ask] Find the recorded growth inhibition belonging to CCN(CC)CCNC(=O)c1ccc(I)cc1 and report it.
[reply] -43.4

[ask] Find the recorded growth inhibition belonging to CCOC(C)=Nc1cc(OC)cc2c1NC(=O)CCS2 and report it.
[reply] -28.9

[ask] Find the recorded growth inhibition belonging to CCc1ccc(NC(=O)c2ccc(Cl)cc2Cl)cc1 and report it.
[reply] 4.9

[ask] Find the recorded growth inhibition belonging to SCCNCc1ccccc1 and report it.
[reply] 20.9

[ask] Find the recorded growth inhibition belonging to OC1CSc2nc3ccccc3n2C1 (stereo unspecified) and report it.
[reply] 17.6

[ask] Find the recorded growth inhibition belonging to COC(=O)C(C(=O)OC)C1CCCC(=O)C1 (stereo unspecified) and report it.
[reply] -2.3

[ask] Find the recorded growth inhibition belonging to Cc1c2noc1CCCCCCCCCCC2 and report it.
[reply] 18.9

[ask] Find the recorded growth inhibition belonging to O=C(NC(CO)Cc1ccccc1)OCc1ccccc1 (stereo unspecified) and report it.
[reply] -4.15

[ask] Find the recorded growth inhibition belonging to CCOc1ccc(N=Nc2c(N)nc(N)[nH]c2=O)cc1 and report it.
[reply] 26.3

[ask] Find the recorded growth inhibition belonging to CC(=O)NNC(=O)C(N)Cc1ccc(O)cc1 (stereo unspecified) and report it.
[reply] 13.5

[ask] Find the recorded growth inhibition belonging to CCC1=CCN(c2ccccn2)OC1c1ccc(OC)cc1 (stereo unspecified) and report it.
[reply] 32.6

[ask] Find the recorded growth inhibition belonging to CNC(=O)C(C)NC(=O)C(Cc1ccccc1)NC(=O)c1ccccc1 (stereo unspecified) and report it.
[reply] -33

[ask] Find the recorded growth inhibition belonging to CCCOC(=O)c1ccc(O)cc1.[Cu+2] and report it.
[reply] 5

[ask] Find the recorded growth inhibition belonging to O=S(=O)(O)c1cc(Nc2ccnc3ccccc23)c2c(S(=O)(=O)O)cc(S(=O)(=O)O)cc2c1 and report it.
[reply] 15.1

[ask] Find the recorded growth inhibition belonging to O=C1c2ccccc2C(=O)N1c1ccc(Cc2ccc(N3C(=O)c4ccccc4C3=O)cc2)cc1 and report it.
[reply] -11.7

[ask] Find the recorded growth inhibition belonging to Cc1[nH]c(=S)[nH]c1C and report it.
[reply] 4.1

[ask] Find the recorded growth inhibition belonging to CCCCOC(=O)c1ccccc1C(=O)Nc1ccccc1 and report it.
[reply] 7.6

[ask] Find the recorded growth inhibition belonging to CC1=CC(C)(C)N(C)C(N)=N1 and report it.
[reply] -4.45

[ask] Find the recorded growth inhibition belonging to CCCCCCCCCCCCCCCCS(=O)(=O)N(/N=c1/sc2ccccc2n1C)C(=O)OCC and report it.
[reply] -29.4

[ask] Find the recorded growth inhibition belonging to CC(C)(O)C[N+](=O)[O-] and report it.
[reply] 5.85

[ask] Find the recorded growth inhibition belonging to CC(=O)OCC1OC(n2c(-c3ccccc3)c(N=Nc3ccc(C)cc3)c(C)c(C#N)c2=S)C(OC(C)=O)C(OC(C)=O)C1OC(C)=O (stereo unspecified) and report it.
[reply] -22.6

[ask] Find the recorded growth inhibition belonging to CSC1=NC(C(N)=O)C(N)N1C (stereo unspecified) and report it.
[reply] -3.1
